Every entry's value here was drawn from the supplement of paper PMC3545927.

Biological target: furin, P09958;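 note: purified furin at 1:10 enzyme:substrate in 50 mM HEPES pH 7.5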
Sequence (P09958 whole entry): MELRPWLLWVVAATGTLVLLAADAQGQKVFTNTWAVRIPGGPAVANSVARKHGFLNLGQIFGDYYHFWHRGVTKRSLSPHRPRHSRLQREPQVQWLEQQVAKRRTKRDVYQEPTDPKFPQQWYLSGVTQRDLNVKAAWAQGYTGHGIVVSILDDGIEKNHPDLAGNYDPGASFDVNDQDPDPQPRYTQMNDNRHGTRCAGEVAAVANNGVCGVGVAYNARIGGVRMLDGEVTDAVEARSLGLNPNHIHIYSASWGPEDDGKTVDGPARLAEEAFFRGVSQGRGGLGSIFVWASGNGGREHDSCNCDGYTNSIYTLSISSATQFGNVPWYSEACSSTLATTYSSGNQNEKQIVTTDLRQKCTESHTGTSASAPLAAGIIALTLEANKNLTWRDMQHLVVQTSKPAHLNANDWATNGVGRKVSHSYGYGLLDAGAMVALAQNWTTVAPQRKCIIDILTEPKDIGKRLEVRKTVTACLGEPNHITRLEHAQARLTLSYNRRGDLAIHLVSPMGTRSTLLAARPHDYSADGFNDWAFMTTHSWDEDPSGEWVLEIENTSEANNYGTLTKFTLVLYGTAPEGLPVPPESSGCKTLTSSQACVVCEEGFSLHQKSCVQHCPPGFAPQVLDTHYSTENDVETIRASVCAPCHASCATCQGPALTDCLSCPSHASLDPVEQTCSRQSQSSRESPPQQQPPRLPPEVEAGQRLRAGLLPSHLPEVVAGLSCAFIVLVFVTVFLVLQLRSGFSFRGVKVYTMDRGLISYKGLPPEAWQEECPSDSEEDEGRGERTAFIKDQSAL
Assay: furin cleavage Z-score vs untreated control; higher = more cleavage, active = 3.5 or more, inactive = 1 or less, 8 variable residues between constant flanks
Conditions: 15 min
Some of the results follow. The hit rate among all sequences tested is not known here.
The categories you may choose from are y for active, n for inactive

Worked examples follow.
CAALGLERRSAGNASASA [FS-1444]    n
CARGKRSCHAAGNASASA [FS-2333]    y
CARGKRSPKSAGNASASA [FS-2672]    y
CAQPTRSKRRAGNASASA [FS-140]    y
CARTKRHRSTAGNASASA [FS-2829]    y

INPUT: Would you mind telling me which call this test gave CAAPRRPRRPAGNASASA [FS-116] ?
OUTPUT: n

INPUT: Query: recorded result category for CARTKRSWVWAGNASASA [FS-2613] in this test
OUTPUT: y

INPUT: Please let me know the test result on file for CAQARRFRRSAGNASASA [FS-844] .
OUTPUT: y

INPUT: Recorded call for CARRRRYAVAAGNASASA [FS-3232] ?
OUTPUT: y

INPUT: Would you mind telling me which call this test gave CARTKKSSVQAGNASASA [FS-1841] ?
OUTPUT: n

INPUT: How did this test come out for CAEVVTSTQVAGNASASA [HC2242] ?
OUTPUT: n

INPUT: For CARRRRYEGHAGNASASA [FS-2235] , what call appears in the results of this test?
OUTPUT: n

INPUT: Recorded test outcome, item CAMEECSQHRAGNASASA [HC1773]
OUTPUT: n

INPUT: Dear all, I need the recorded test outcome for CAAVQTNWQKAGNASASA [HC1035] , thank you.
OUTPUT: n

INPUT: Per the records of this test, what outcome belongs to CALFAGVDAEAGNASASA [HC349] ?
OUTPUT: n

INPUT: Assay result, entry CALWWLQYFLAGNASASA [HC582] — outcome?
OUTPUT: n

INPUT: What was the test verdict on CARPLRSSERAGNASASA [FS-2056] ?
OUTPUT: n

INPUT: Please let me know the test result on file for CAPSKRGNSTAGNASASA [FS-2877] .
OUTPUT: n
